Values from patent US20220281976A1

target: T1, human CD33 (human, UniProt P20138 18-364); test: flow cytometry, human primary macrophages;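 also: binding of CD33 antibodies at 10 µg/ml to human primary macrophages, 1 h on ice, detected with PE-labelled secondary antibody by flow cytometry, reported as MFI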
T1 construct: CD33 on human primary dendritic cells, macrophages, monocytes and T cells and on CHO cells expressing recombinant human CD33; also called Siglec-3; hCD33
T1 sequence (P20138 18-364): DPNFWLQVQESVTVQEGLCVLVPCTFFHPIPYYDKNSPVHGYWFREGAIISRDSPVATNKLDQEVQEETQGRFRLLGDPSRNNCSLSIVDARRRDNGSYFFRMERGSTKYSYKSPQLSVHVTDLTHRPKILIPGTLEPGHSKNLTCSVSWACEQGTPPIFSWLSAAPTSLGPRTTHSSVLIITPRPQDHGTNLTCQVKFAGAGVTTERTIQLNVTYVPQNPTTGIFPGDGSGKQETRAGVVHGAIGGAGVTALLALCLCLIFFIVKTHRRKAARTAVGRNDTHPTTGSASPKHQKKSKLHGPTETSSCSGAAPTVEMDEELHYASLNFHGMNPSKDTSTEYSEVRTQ
Readout: Macrophage MFI
Just the number, please, no unit after it.

Prompt: What does the record list as Macrophage MFI for C-90 (antibody, V domains shown, human IgG1) VH: EVQLVESGGGLVQPGGSLRLSCAASGFTFSSYWMSWVRQAPGKGLEWVANINQDGSEKYYVDSVKGRFTISRDNAKNSLYLQMNSLRAEDTAVYYCAREAGAVTGYRWFDPWGQGTLVTVSS VL: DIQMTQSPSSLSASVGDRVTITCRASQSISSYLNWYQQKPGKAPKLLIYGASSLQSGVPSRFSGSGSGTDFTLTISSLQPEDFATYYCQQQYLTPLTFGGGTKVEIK ?
Completion: 1260

Prompt: # query: Macrophage MFI of entry C-41 (antibody, V domains shown, human IgG1) VH: QLQLQESGPGLVKPSETLSLTCTVSGGSISSSSYYWGWIRQPPGKGLEWIGSISYSGSTYYNPSLKSRVTISVDTSKNQFSLKLSSVTAADTAVYYCAREGGKGMDVWGQGTLVTVSS VL: EIVLTQSPGTLSLSPGERATLSCRASQSVSSSFLAWYQQKPGQAPRLLIYGASSRATGIPDRFSGSGSGTDFTLTISRLEPEDFAVYYCQQFGDLPTFGGGTKVEIK
Completion: 945

Prompt: Reported Macrophage MFI for C-87 (antibody, V domains shown, human IgG1) VH: QLQLQESGPGLVKPSETLSLTCTVSGGSISSSSYAWGWIRQPPGKGLEWIGSIYYSGSTYYNPSLKSRVTISVDTSKNQFSLKLSSVTAADTAVYYCARDPLYPLTPYGMDVWGQGTTVTVSS VL: EIVMTQSPATLSLSPGERATLSCRASQSVSSYLAWYQQKPGQAPRLLIYDASNRATGIPARFSGSGSGTDFTLTISSLEPEDFAVYYCQQLSVFPPTFGGGTKVEIK : what is it?
Completion: 1260
